Cited source for all entries: ChEMBL document CHEMBL3108702

I'd be grateful if you could share measured IC50 for these entries.
- targetUnderTest: P2X purinoceptor 7 (Homo sapiens, UniProt Q99572)
- Sequence (Q99572 whole entry): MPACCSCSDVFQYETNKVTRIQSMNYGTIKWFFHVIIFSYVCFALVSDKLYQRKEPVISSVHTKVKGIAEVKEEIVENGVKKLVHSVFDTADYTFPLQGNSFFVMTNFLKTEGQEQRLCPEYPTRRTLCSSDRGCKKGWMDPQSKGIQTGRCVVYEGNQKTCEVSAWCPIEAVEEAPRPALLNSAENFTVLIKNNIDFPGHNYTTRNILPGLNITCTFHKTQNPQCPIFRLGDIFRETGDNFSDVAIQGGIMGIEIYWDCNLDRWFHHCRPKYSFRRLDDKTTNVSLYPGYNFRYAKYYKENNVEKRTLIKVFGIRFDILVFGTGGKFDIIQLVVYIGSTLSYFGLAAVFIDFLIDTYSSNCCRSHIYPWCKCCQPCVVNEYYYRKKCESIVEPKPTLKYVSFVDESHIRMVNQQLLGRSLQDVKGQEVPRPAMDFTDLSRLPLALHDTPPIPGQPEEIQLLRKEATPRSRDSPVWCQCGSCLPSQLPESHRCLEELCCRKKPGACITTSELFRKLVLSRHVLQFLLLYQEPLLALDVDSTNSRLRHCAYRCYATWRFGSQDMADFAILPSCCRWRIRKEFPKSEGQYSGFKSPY
- assayNotes: Antagonist activity at P2X7 receptor (unknown origin)
- conditionParameters: read-out: IC50
Numeric only. Scale: nM

[ask] Which IC50 is listed for CN([C@@H](Cc1ccc(OS(=O)(=O)c2cccc3cnccc23)cc1)C(=O)N1CCN(c2ccccc2)CC1)S(=O)(=O)c1cccc2cnccc12 ?
[reply] 94.4

[ask] Next compound: CN([C@@H](Cc1ccc(OS(=O)(=O)c2cccc3cnccc23)cc1)C(=O)N1CCN(Cc2ccccc2)CC1)S(=O)(=O)c1cccc2cnccc12
[reply] 65.3

====

- targetUnderTest: P2X purinoceptor 7 (Homo sapiens)
- assayNotes: Antagonist activity at P2X7 receptor (unknown origin)
- conditionParameters: read-out: pIC50 (converted)
propertyLabel: log10(IC50) (log10 of the value in nM)
Form field - Quantity: IC50; Unit: nM; Scale: log10

[ask] Which log10(IC50) is listed for COc1ccc(Cl)c(NC(=O)CC23CC4CC(CC(C4)C2)C3)c1 ?
[reply] 1.80

[ask] Next molecule: O=C(NCC12CC3CC(CC(C3)C1)C2)c1ccc(Cl)cc1Cl
[reply] 2.60

[ask] Next molecule: CN(CC12CC3CC(CC(C3)C1)C2)C(=O)c1ccc(Cl)cc1
[reply] 3.60

[ask] Next molecule: Cc1cccc(-c2nnnn2Cc2cccnc2)c1C
[reply] 2.40

[ask] Next molecule: O=C(CC12CC3CC(CC(C3)C1)C2)Nc1ccc(Cl)cc1
[reply] 2.70

[ask] Next molecule: CN(Cc1ccc(Cl)cc1)CC12CC3CC(CC(C3)C1)C2
[reply] 3.60

[ask] Next molecule: O=C(NCC12CC3CC(C1)CC(CNC(=O)c1ccc(Cl)cc1Cl)(C3)C2)c1ccc(Cl)cc1Cl
[reply] 2.10

[ask] Next molecule: COc1cccc(NC(=O)CC23CC4CC(CC(C4)C2)C3)c1C
[reply] 0.70

[ask] Next molecule: Clc1cccc(-n2ncnc2NCc2cccnc2)c1Cl
[reply] 0.96
